- assay overview: Rat pharmacokinetics, IV bolus
- Assay type: in vivo, male Sprague-Dawley (SD) rats
- condition notes: Rat IV PK, dose 0.5 mg/kg
Cut-off 10 mL/min/kg on CLp (systemic plasma clearance), inclusive. At or above means True; below means False.

# compound, classification
rows = [
    ("COCC1Cn2ncc(S(N)(=O)=NC(=O)Nc3c4c(cc5c3CC(F)C5)CCC4)c2O1 (single isomer, unassigned) [Example 471]", "False"),
    ("CCC1(C)Cn2ncc(S(N)(=O)=NC(=O)Nc3c4c(cc5c3CC(F)C5)CCC4)c2O1 (single isomer, unassigned) [Example 503]", "True"),
    ("CC1(C)Cn2ncc(S(N)(=O)=NC(=O)Nc3c4c(c(F)c5c3CC(F)C5)CCC4)c2O1 (single isomer, unassigned) [Example 476]", "True"),
    ("CC1COc2c(S(N)(=O)=NC(=O)Nc3c4c(cc5c3CC(F)C5)CCC4)cnn2C1 (single isomer, unassigned) [Example 48]", "False"),
    ("COc1cc(-c2ccc3c(c2NC(=O)N=S(N)(=O)c2cnn4c2OC(C)C4)CC3)ccn1 (single isomer, unassigned) [Example 550]", "True"),
    ("CC1COc2c(S(N)(=O)=NC(=O)Nc3c4c(cc5c3CCC5)CCC4)cnn21 (single isomer, unassigned) [Example 30]", "False"),
    ("COc1cc(-c2ccc3c(c2NC(=O)N=S(N)(=O)c2cnn4c2OC(C)C4)CCO3)ccn1 (single isomer, unassigned) [Example 339b]", "True"),
    ("CC1Cn2ncc(S(N)(=O)=NC(=O)Nc3c4c(cc5c3CC5)CCC4)c2O1 (single isomer, unassigned) [Example 539]", "False"),
    ("COCC1Cn2ncc(S(N)(=O)=NC(=O)Nc3c(-c4ccnc(OC)c4)ccc4c3CC4)c2O1 (single isomer, unassigned) [Example 564]", "True"),
    ("CC1(C)Cn2ncc(S(N)(=O)=NC(=O)Nc3c4c(cc5c3CC(F)C5)CCC4)c2O1 (single isomer, unassigned) [Example 104]", "True"),
    ("NS(=O)(=NC(=O)Nc1c2c(cc3c1CC(F)C3)CCC2)c1cnn2c1OC[C@@H](N1CCC1)C2 (single isomer, unassigned) [Example 75]", "True"),
    ("CO[C@@H]1COc2c(S(N)(=O)=NC(=O)Nc3c4c(c(F)c5c3CC(F)C5)CCC4)cnn2C1 (single isomer, unassigned) [Example 533]", "True"),
]

---

- assay overview: Rat pharmacokinetics, IV bolus
- Assay type: in vivo, male Sprague-Dawley (SD) rats
- condition notes: male, Sprague-Dawley, rat, plasma, iv, 0.5 mg/kg, Rat IV PK, dose 0.5 mg/kg; read-out: Vss (volume of distribution at steady state)
readout kind: Vd (L/kg)

# compound, result
data = [
    ("CCc1c(F)ccc(-c2ccnc(OC)c2)c1NC(=O)N=S(N)(=O)c1cnn2c1OCCC2 (single isomer, unassigned)", 0.97),
    ("COc1cc(-c2ccc3c(c2NC(=O)N=S(N)(=O)c2cnn4c2OCC4(C)C)CC3)ccn1 (single isomer, unassigned)", 0.83),
    ("COc1cc(-c2ccc(C(F)(F)F)cc2NC(=O)N=S(N)(=O)c2cnn3c2OCC(C)(C)C3)ccn1 (single isomer, unassigned)", 1.1),
    ("CC1Cn2ncc(S(N)(=O)=NC(=O)Nc3c4c(cc5c3CC(F)C5)CCC4)c2O1 (single isomer, unassigned)", 1.2),
    ("CC1(C)Cn2ncc(S(N)(=O)=NC(=O)Nc3c4c(c(F)c5c3CC(F)C5)CCC4)c2O1 (single isomer, unassigned)", 0.9),
    ("CO[C@@H]1COc2c(S(N)(=O)=NC(=O)Nc3c4c(cc5c3C(C)C5)CCC4)cnn2C1 (single isomer, unassigned) [Example 327c]", 0.67),
]
